- Test system: iBMDM (immortalised mouse bone-marrow-derived macrophages), LPS-stimulated
- experiment_summary: mitochondrial superoxide (MitoSOX fluorescence) fold increase over unstimulated control; higher = more LPS-induced mitochondrial ROS (less inhibition)
- assay_setup: inhibitor concentration: 500 nM; LPS: 100 ng/ml; time after LPS: 4 h
measured_property: mitochondrial superoxide
Hey, just send me the number, nothing else.

C=CC(=O)Nc1ccc2ncnc(Nc3cccc(Br)c3)c2c1 : 1.3
Cc1nc(Nc2ncc(C(=O)Nc3c(C)cccc3Cl)s2)cc(N2CCN(CCO)CC2)n1 [Dasatinib] : 1.85
O=C(Nc1cccc(Nc2ncc(Br)c(NCCc3cnc[nH]3)n2)c1)N1CCCC1 : 1.16
CC(=O)Nc1nc(C)c(-c2ccc(Cl)c(S(=O)(=O)NCCO)c2)s1 : 1.23
Cc1cc(C)nc(NS(=O)(=O)c2ccc(NC(=S)NC(=O)COc3ccc(Br)cc3Cl)cc2)n1 : 1.61
O=C(NOCC(O)CO)c1cc(Br)c(F)c(F)c1Nc1ccc(I)cc1F (centres undefined) : 1.34

Let's switch to this molecule now.
*Q* mitochondrial superoxide lookup needed for O=c1c(O)c(-c2ccc(O)c(O)c2)oc2cc(O)cc(O)c12 [Quercetin] , thanks.
*A* 1.43

* * *

- Tested on: iBMDM (immortalised mouse bone-marrow-derived macrophages), LPS-stimulated
- experiment_summary: mitochondrial superoxide (MitoSOX fluorescence) fold increase over unstimulated control; higher = more LPS-induced mitochondrial ROS (less inhibition)
- assay_setup: inhibitor concentration: 500 nM; LPS: 100 ng/ml; time after LPS: 4 h
measured_property: mitochondrial superoxide

Field: example entries. Status: answers known.
CCCCCCCCCCCCc1ccc(S(=O)(=O)Nc2nncs2)cc1 : 1.2
CC1(C)CNc2cc(NC(=O)c3cccnc3NCc3ccncc3)ccc21 [Motesanib Diphosphate (AMG-706)] : 1.71
O=c1cc(-c2cccc3c2Sc2ccccc2S3)oc(N2CCOCC2)c1 : 1.51
O=c1ncn2nc(Sc3ccc(F)cc3F)ccc2c1-c1c(Cl)cccc1Cl : 1.28
C[C@]1(O)C[C@@H](c2nc(-c3ccc4ccc(-c5ccccc5)nc4c3)c3c(N)nccn32)C1 : 1.56

*Q* mitochondrial superoxide lookup needed for "C=CC(=O)N1CCC[C@@H](n2nc(-c3ccc(Oc4ccccc4)cc3)c3c(N)ncnc32)C1" , thanks.
*A* 1.46

*Q* Now consider COc1cc2ncnc(Nc3ccc(F)c(Cl)c3)c2cc1OCCCN1CCOCC1 [Gefitinib (ZD1839)] and answer again.
*A* 1.77

* * *

- Test system: iBMDM (immortalised mouse bone-marrow-derived macrophages), LPS-stimulated
- experiment_summary: mitochondrial superoxide (MitoSOX fluorescence) fold increase over unstimulated control; higher = more LPS-induced mitochondrial ROS (less inhibition)
- assay_setup: inhibitor concentration: 500 nM; LPS: 100 ng/ml; time after LPS: 2 h
mitochondrial superoxide by entry:
Hey, just send me the number, nothing else.

COc1c(C)c(C(=O)c2ccc(N)c(C(=O)O)c2)n2ccccc12 : 1.26
CCNC(=O)Nc1ccc(-c2nc3c(c(N4CCOC[C@@H]4C)n2)CCN(C2COC2)C3)cc1 : 1.6
Cc1ccc([N+](=O)[O-])cc1S(=O)(=O)N(C)/N=C/c1cnc2ccc(Br)cn12 : 1.17
Cc1[nH]c(/C=C2\C(=O)Nc3ccc(S(=O)(=O)N(C)c4cccc(Cl)c4)cc32)c(C)c1C(=O)N1CCN(C)CC1 : 1.4
CC(C)(O)CC(=O)NCCn1ccc2ncnc(Nc3ccc(Oc4cccc(C(F)(F)F)c4)c(Cl)c3)c21 : 1.37
COc1cc(N2CCC(N3CCN(C)CC3)CC2)ccc1Nc1ncc(Cl)c(Nc2ccccc2S(=O)(=O)C(C)C)n1 : 1.3

Let's switch to this compound now.
*Q* mitochondrial superoxide lookup needed for "CCOc1cc2ncc(C#N)c(Nc3ccc(OCc4ccccn4)c(Cl)c3)c2cc1NC(=O)/C=C/CN(C)C" , thanks.
*A* 1.19

* * *

- Test system: iBMDM (immortalised mouse bone-marrow-derived macrophages), LPS-stimulated
- experiment_summary: mitochondrial superoxide (MitoSOX fluorescence) fold increase over unstimulated control; higher = more LPS-induced mitochondrial ROS (less inhibition)
- assay_setup: inhibitor concentration: 500 nM; LPS: 100 ng/ml; time after LPS: 4 h
measured_property: mitochondrial superoxide
Hey, just send me the number, nothing else.

Nc1nc(N)c2nc(-c3cccc(O)c3)c(-c3cccc(O)c3)nc2n1 : 1.4
Cc1ccc(C(=O)Nc2cccc(C(F)(F)F)c2)cc1Nc1nc(-c2cccnc2)nc2c1cnn2C : 1.38
O=P(O)(O)C(O)(Cn1ccnc1)P(=O)(O)O : 1.4
CO[C@@H](C(=O)N1Cc2[nH]nc(NC(=O)c3ccc(N4CCN(C)CC4)cc3)c2C1)c1ccccc1 : 1.48
NC(=O)Nc1cc(-c2cccc(F)c2)sc1C(=O)N[C@H]1CCCNC1 : 1.25

*Q* mitochondrial superoxide lookup needed for "CN(C)CCOc1ccc(-c2nc(-c3ccncc3)c(-c3ccc4c(c3)CC/C4=N\O)[nH]2)cc1" , thanks.
*A* 1.31

*Q* Now consider "Cc1cc2c(F)c(Oc3ncnn4cc(OC[C@@H](C)O)c(C)c34)ccc2[nH]1" and answer again.
*A* 1.53

* * *

- System: iBMDM (immortalised mouse bone-marrow-derived macrophages), LPS-stimulated
- experiment_summary: mitochondrial superoxide (MitoSOX fluorescence) fold increase over unstimulated control; higher = more LPS-induced mitochondrial ROS (less inhibition)
- assay_setup: inhibitor concentration: 500 nM; LPS: 100 ng/ml; time after LPS: 2 h
measured_property: mitochondrial superoxide

Cc1[nH]nc2ccc(-c3cncc(OC[C@@H](N)Cc4ccccc4)c3)cc12 : 1.43
COc1cc(Nc2ncc(F)c(Nc3ccc4c(n3)NC(=O)C(C)(C)O4)n2)cc(OC)c1OC : 1.14
CNC(=O)CN1CCC(Oc2cc3c(Nc4cccc(Cl)c4F)ncnc3cc2OC)CC1 [AZD8931 (Sapitinib)] : 1.24
O=C1c2ccccc2-c2n[nH]c3cccc1c23 : 1.2

Let's switch to this compound now.
*Q* mitochondrial superoxide lookup needed for "COc1ccc(F)c(F)c1C(=O)c1cnc(NC2CCN(S(C)(=O)=O)CC2)nc1N" , thanks.
*A* 1.57

* * *

- Test system: iBMDM (immortalised mouse bone-marrow-derived macrophages), LPS-stimulated
- experiment_summary: mitochondrial superoxide (MitoSOX fluorescence) fold increase over unstimulated control; higher = more LPS-induced mitochondrial ROS (less inhibition)
- assay_setup: inhibitor concentration: 500 nM; LPS: 100 ng/ml; time after LPS: 1 h
mitochondrial superoxide by entry:
Hey, just send me the number, nothing else.

Field: example entries. Status: answers known.
Cc1cc(Nc2cc(CN3CCOCC3)c3nc(C)c(Cc4ccc(Cl)cc4F)n3n2)n[nH]1 : 1.16
COc1cc(Nc2c(C#N)cnc3cc(OCCCN4CCN(C)CC4)c(OC)cc23)c(Cl)cc1Cl [Bosutinib (SKI-606)] : 1.58
CCCS(=O)(=O)Nc1ccc(F)c(C(=O)c2c[nH]c3ncc(Cl)cc23)c1F : 1.24
Nc1ncnc2c1c(-c1cccc(OCc3ccccc3)c1)cn2C1CC(CN2CCCC2)C1 (stereo not given) : 1.44

Let's switch to this compound now.
*Q* mitochondrial superoxide lookup needed for "O=C1NC(=O)/C(=C/c2ccc3nccc(-c4ccncc4)c3c2)S1" , thanks.
*A* 1.12

* * *

- Test system: iBMDM (immortalised mouse bone-marrow-derived macrophages), LPS-stimulated
- experiment_summary: mitochondrial superoxide (MitoSOX fluorescence) fold increase over unstimulated control; higher = more LPS-induced mitochondrial ROS (less inhibition)
- assay_setup: inhibitor concentration: 500 nM; LPS: 100 ng/ml; time after LPS: 4 h
measured_property: mitochondrial superoxide

C[C@H](Nc1ncnc2nc[nH]c12)c1cc2cccc(Cl)c2c(=O)n1-c1ccccc1 : 1.31
COc1ccc(F)c(F)c1C(=O)c1cnc(NC2CCN(S(C)(=O)=O)CC2)nc1N : 1.8
Cn1cc(-c2ccc3ncc(Cc4ccc5ncccc5c4)n3n2)cn1 : 1.61
Cc1cnc(Nc2ccc(OCCN3CCCC3)cc2)nc1Nc1cccc(S(=O)(=O)NC(C)(C)C)c1 : 1.42

*Q* mitochondrial superoxide lookup needed for "Nc1nc(NCCNc2ncc(-n3ccnc3)c(-c3ccc(Cl)cc3Cl)n2)ccc1[N+](=O)[O-]" , thanks.
*A* 1.31

*Q* Now consider CN1CCC(CNc2ccc3ncc(-c4cccc(OC(F)(F)F)c4)n3n2)CC1 [SGI-1776 free base] and answer again.
*A* 1.33

* * *

- Test system: iBMDM (immortalised mouse bone-marrow-derived macrophages), LPS-stimulated
- experiment_summary: mitochondrial superoxide (MitoSOX fluorescence) fold increase over unstimulated control; higher = more LPS-induced mitochondrial ROS (less inhibition)
- assay_setup: inhibitor concentration: 500 nM; LPS: 100 ng/ml; time after LPS: 1 h
mitochondrial superoxide by entry:
Hey, just send me the number, nothing else.

*Q* Form field - read-out: mitochondrial superoxide; system: iBMDM (immortalised mouse bone-marrow-derived macrophages), LPS-stimulated; submitted item: "CS(=O)(=O)CCNCc1ccc(-c2ccc3ncnc(Nc4ccc(OCc5cccc(F)c5)c(Cl)c4)c3c2)o1"
*A* 1.6

*Q* Now consider "O=C(NCc1cccc(O)c1)Nc1nc(-c2ccncc2)cs1" and answer again.
*A* 1.36

These measurements were taken from the supplement of paper PMC7393113.
